Values compiled from ChEMBL document CHEMBL5226336.

Test: Drug concentration in cynomolgus monkey plasma at 0.1 mg/kg, iv measured after 5 mins by LC-MS/MS analysis
Type: ADME, organism-based, Macaca fascicularis
Readout kind: concentration at 5 min
State the value with its unit after it.

What value of measured concentration at 5 min is listed for `Cc1cc(F)ncc1C(=O)Nc1ccc([C@@H]2C[C@H]2NCC2CC2)cc1` ? 31.2 ng/mL

###

Hi there, I'd appreciate the recorded efflux ratio at 1 h, 1 µM for every entry that follows.
Tested on: P-glycoprotein (ABCB1, MDR1) (Homo sapiens, UniProt P08183)
Sequence (P08183 whole entry): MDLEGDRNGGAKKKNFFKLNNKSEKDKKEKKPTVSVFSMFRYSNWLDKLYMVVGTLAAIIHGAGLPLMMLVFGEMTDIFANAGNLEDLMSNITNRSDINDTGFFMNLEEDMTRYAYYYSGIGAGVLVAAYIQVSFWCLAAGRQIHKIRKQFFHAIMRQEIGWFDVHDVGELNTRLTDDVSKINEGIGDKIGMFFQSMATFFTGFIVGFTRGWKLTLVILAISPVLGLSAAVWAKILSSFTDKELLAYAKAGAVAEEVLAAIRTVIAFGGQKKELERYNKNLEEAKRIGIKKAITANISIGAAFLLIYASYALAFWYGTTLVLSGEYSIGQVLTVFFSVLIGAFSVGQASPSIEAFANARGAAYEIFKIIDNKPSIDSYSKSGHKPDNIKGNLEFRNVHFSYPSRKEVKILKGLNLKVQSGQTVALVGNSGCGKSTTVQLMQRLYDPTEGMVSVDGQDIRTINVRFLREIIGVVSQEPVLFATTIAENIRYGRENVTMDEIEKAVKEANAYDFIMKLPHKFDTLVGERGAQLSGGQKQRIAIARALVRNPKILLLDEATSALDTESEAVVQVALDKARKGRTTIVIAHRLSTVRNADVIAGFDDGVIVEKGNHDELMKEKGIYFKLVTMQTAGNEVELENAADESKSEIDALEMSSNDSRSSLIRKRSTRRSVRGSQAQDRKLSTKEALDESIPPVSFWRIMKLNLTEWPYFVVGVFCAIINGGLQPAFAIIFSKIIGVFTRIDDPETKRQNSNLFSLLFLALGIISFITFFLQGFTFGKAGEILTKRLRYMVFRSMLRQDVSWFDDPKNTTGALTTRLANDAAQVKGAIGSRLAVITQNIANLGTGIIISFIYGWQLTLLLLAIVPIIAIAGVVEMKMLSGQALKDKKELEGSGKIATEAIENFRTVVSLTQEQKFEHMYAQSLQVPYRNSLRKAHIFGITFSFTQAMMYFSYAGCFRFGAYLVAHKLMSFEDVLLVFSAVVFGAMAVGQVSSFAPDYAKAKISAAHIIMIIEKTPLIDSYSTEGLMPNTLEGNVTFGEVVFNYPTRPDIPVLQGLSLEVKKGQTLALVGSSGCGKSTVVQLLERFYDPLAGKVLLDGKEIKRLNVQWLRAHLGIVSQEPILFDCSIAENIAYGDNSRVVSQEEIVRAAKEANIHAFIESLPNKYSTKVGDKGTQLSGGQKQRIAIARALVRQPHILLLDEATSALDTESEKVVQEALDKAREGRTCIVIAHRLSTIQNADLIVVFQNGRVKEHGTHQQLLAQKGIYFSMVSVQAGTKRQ
Test: Substrate activity at p-glycoprotein (unknown origin) expressed in pig LLC-PK1 cells coexpressing MDR1 assessed as efflux ratio at apparent permeability across basolateral to apical side to apparent permeability across apical to basolateral side at 1 uM measured after 1 hr by LC-MS/MS analysis
Type: ADME, cell-based
Returns: the value as a bare number; no unit string appended.

Recorded efflux ratio at 1 h, 1 µM of `O=C(Nc1ccc([C@@H]2C[C@H]2NCC2CC2)cc1)c1ccc(F)nc1` , please. 0.8

# query: efflux ratio at 1 h, 1 µM of entry `Cc1cc(F)ncc1N(C)C(=O)c1ccc([C@@H]2C[C@H]2NCC2CC2)cc1` 1.4

Query (compound): `O=C(c1ccc([C@@H]2C[C@H]2NCC2CC2)cc1)N1CC(F)C1` ; field requested: efflux ratio at 1 h, 1 µM 0.64

Form field: reported efflux ratio at 1 h, 1 µM of `O=C(c1ccc([C@@H]2C[C@H]2NCC2CC2)cc1)N1CCC(F)CC1` 0.66

Return reported efflux ratio at 1 h, 1 µM; argument: `Cc1nc(F)ccc1N(C)C(=O)c1ccc([C@@H]2C[C@H]2NCC2CC2)cc1` 1.3

I'd like to know its efflux ratio at 1 h, 1 µM. The compound in question is `Cc1cc(F)ncc1C(=O)Nc1ccc([C@@H]2C[C@H]2NCC2CC2)cc1` 0.91
